Where these numbers come from: patent US5196427A

target: Brain CCK receptor (Mus musculus, UniProt P56481); construct: from tissue; host or cells: forebrain membranes of male CF-1 mice; assay: Brain CCK receptor binding (mouse brain membranes, 125I-CCK-8 sulfate); conditions: mouse brain membranes; Mean ± SEM, n = 3; values without SEM n = 1; read-out: Brain IC50
MEASURED PROPERTY: IC50 (µM)

CC(C)Oc1cccc(-n2c(CCc3c[nH]c4ccccc34)nc3ccccc3c2=O)c1 [Example 25]: 0.026
O=c1c2ccccc2nc(CCc2c[nH]c3ccc(Br)cc23)n1-c1cccc(N2CCCC2)c1 [Example 40]: 0.022

P. COc1ccc(-n2c(CCc3c[nH]c4ccc(Br)cc34)nc3ccccc3c2=O)cc1OC [Example 46]
Q. CC(C)c1ccc(-n2c(CCc3c[nH]c4ccc(Cl)cc34)nc3ccccc3c2=O)cc1 [Example 49]
R. CCCOc1ccc(-n2c(CCc3c[nH]c4ccc(Br)cc34)nc3ccccc3c2=O)cc1 [Example 54]
## Input Order the records by IC50, with each subsequent value no larger than the one before. Put the labels in the requested order and write them down.
## Output R, P, Q
(R: 1.2 µM, P: 0.13 µM, Q: 0.038 µM)

1. CCc1ccc(-n2c(CCc3c[nH]c4ccc(Br)cc34)nc3ccccc3c2=O)cc1 [Example 47]
2. CCOc1ccc(-n2c(CCc3c[nH]c4ccc(Br)cc34)nc3ccccc3c2=O)cc1 [Example 53]
## Input Out of 1 and 2 , name the one with the higher IC50. Reply briefly: the label of your chosen item.
## Output 2

A. CN(C)c1ccc(-n2c(CCc3c[nH]c4ccc(Cl)cc34)nc3ccccc3c2=O)cc1 [Example 58]
B. Cc1ccc2[nH]cc(CCc3nc4ccccc4c(=O)n3-c3cccc(C(F)(F)F)c3)c2c1 [Example 36]
C. CSc1cccc(-n2c(CCc3c[nH]c4ccc(Br)cc34)nc3ccccc3c2=O)c1 [Example 32]
D. COc1ccc2[nH]cc(CCc3nc4ccccc4c(=O)n3-c3ccccc3)c2c1 [Example 3]
E. CN(C)c1cccc(-n2c(CCc3c[nH]c4ccc(Cl)cc34)nc3ccccc3c2=O)c1 [Example 39]
## Input List the 5 entries from lowest IC50 to highest IC50 value. Put the labels in the requested order and write them down.
## Output E, C, A, B, D

---

Biological target: Brain CCK receptor (Mus musculus, UniProt P56481)
Construct: from tissue; host or cells: forebrain membranes of male CF-1 mice
Experiment: Brain CCK receptor binding (mouse brain membranes, 125I-CCK-8 sulfate)
Conditions: mouse brain membranes; Mean ± SEM, n = 3; values without SEM n = 1; read-out: Brain IC50
Method: Brain CCK receptor binding was performed using mouse brain membranes according to the method of Chang and Lotti (Proc. Natl. Acad. Sci. 83: 4923-4926, 1986). Male CF-1 mice, 23-25 g were sacrificed by cervical dislocation, the forebrain removed and placed in ice cold 50 mM Tris buffer, pH 7.4. […] The filters were washed twice with 3 ml of 50 mM Tris buffer, pH 7.4, containing 0.01% BSA and then counted for radioactivity in plastic tubes with a Micromedic 10/600 automatic gamma counter. […]
pIC50: −log10 of the molar value.
MEASURED PROPERTY: pIC50

See these solved cases before continuing.
CCc1cccc(-n2c(CCc3c[nH]c4ccccc34)nc3ccccc3c2=O)c1: 7.14
O=c1c2ccccc2nc(CCc2c[nH]c3ccccc23)n1-c1cccc(F)c1: 6.14
COc1cccc(-n2c(CCc3c[nH]c4ccc(F)cc34)nc3ccccc3c2=O)c1: 6.96
COc1ccc2[nH]cc(CCc3nc4ccccc4c(=O)n3-c3cccc(C(F)(F)F)c3)c2c1: 6.89
CC(C)Oc1cccc(-n2c(CCc3c[nH]c4ccc(Cl)cc34)nc3ccccc3c2=O)c1: 7.72

A. CCOc1cccc(-n2c(CCc3c[nH]c4ccc(Br)cc34)nc3ccccc3c2=O)c1
B. CCCCc1ccc(-n2c(CCc3c[nH]c4ccc(Br)cc34)nc3ccccc3c2=O)cc1
## Input Out of A and B , name the one with the higher pIC50. Reply briefly: the label of your chosen item.
## Output A
(A: 7.47, B: 6.03)

---

Target sequence: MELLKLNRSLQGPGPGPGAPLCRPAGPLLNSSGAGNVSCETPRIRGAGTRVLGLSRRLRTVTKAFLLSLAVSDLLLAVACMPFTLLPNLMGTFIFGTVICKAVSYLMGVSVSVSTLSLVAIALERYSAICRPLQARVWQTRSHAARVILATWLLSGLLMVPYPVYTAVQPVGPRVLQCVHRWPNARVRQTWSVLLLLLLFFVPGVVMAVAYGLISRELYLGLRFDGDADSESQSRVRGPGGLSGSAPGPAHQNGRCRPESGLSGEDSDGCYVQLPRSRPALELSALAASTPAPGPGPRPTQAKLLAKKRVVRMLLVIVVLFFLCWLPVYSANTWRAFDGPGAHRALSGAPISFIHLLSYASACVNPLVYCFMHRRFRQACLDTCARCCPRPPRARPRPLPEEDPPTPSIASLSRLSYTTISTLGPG
MEASURED PROPERTY: IC50 (nM)
Please give a number only; it is taken to be in nM.

## Input Would you kindly share the measured IC50 for CCc1cccc(-n2c(CC(C)c3c[nH]c4ccc(Br)cc34)nc3ccccc3c2=O)c1 (stereo not shown) [Example 64] ?
## Output 1600

---

target: Brain CCK receptor (Mus musculus); construct: from tissue; host or cells: forebrain membranes of male CF-1 mice; assay: Brain CCK receptor binding (mouse brain membranes, 125I-CCK-8 sulfate)
MEASURED PROPERTY: IC50 (nM)
Please give a number only; it is taken to be in nM.

## Input Would you kindly share the measured IC50 for `COc1ccc(-n2c(CCc3c[nH]c4ccccc34)nc3ccccc3c2=O)cc1` ?
## Output 98

---

target: Brain CCK receptor (Mus musculus, UniProt P56481); construct: from tissue; host or cells: forebrain membranes of male CF-1 mice; experiment: Brain CCK receptor binding (mouse brain membranes, 125I-CCK-8 sulfate); conditions: mouse brain membranes; Mean ± SEM, n = 3; values without SEM n = 1; read-out: Brain IC50
MEASURED PROPERTY: IC50 (nM)

CC(C)c1ccc(-n2c(CCc3c[nH]c4ccc(Br)cc34)nc3ccccc3c2=O)cc1 [Example 48]: 37

a. CC(C)Oc1ccc(-n2c(CCc3c[nH]c4ccc(Br)cc34)nc3ccccc3c2=O)cc1 [Example 55]
b. COc1cccc(-n2c(CCc3c[nH]c4ccc(OC)cc34)nc3ccccc3c2=O)c1 [Example 22]
## Input Quick one: lower IC50, a or b ? Reply briefly: the label of your chosen item.
## Output b

---

Molecular target: Brain CCK receptor (Mus musculus)
Construct: from tissue; host or cells: forebrain membranes of male CF-1 mice
Sequence (P56481 1-453): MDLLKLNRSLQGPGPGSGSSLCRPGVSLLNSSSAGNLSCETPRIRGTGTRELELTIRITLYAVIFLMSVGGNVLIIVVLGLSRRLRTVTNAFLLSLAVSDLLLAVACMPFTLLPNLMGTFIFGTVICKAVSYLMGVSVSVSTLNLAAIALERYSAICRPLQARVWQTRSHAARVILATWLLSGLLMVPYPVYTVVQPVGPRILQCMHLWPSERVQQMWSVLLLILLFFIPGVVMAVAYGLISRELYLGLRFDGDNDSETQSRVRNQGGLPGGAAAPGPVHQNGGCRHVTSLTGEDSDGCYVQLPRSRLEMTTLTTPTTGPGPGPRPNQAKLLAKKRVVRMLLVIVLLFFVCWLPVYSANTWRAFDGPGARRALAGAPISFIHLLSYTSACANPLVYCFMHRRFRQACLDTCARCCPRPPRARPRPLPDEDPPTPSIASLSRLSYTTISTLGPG
Assay: Brain CCK receptor binding (mouse brain membranes, 125I-CCK-8 sulfate)
Settings: read-out: Brain % inhibition in binding assay, mouse brain membranes; 10 μM
MEASURED PROPERTY: inhibition at 10 µM (%)
Please give a number only; it is taken to be in %.

See these solved cases before continuing.
O=c1c2ccccc2nc(CCc2c[nH]c3ccccc23)n1-c1ccccc1F [Example 8]: 75
O=c1c2ccccc2nc(CCc2c[nH]c3ccccc23)n1-c1ccccc1Cl [Example 9]: 44
COc1ccccc1-n1c(CCc2c[nH]c3ccccc23)nc2ccccc2c1=O [Example 10]: 74

## Input Would you kindly share the measured inhibition at 10 µM for O=c1c2ccccc2nc(Cc2c[nH]c3ccccc23)n1-c1ccccc1 [Example 2] ?
## Output 36

## Input Queued: O=c1c2ccccc2nc(CCCc2c[nH]c3ccccc23)n1-c1ccccc1 [Example 62]
## Output 20

---

biological target: Brain CCK receptor (Mus musculus, UniProt P56481); construct: from tissue; host or cells: forebrain membranes of male CF-1 mice; assay: Brain CCK receptor binding (mouse brain membranes, 125I-CCK-8 sulfate); conditions: mouse brain membranes; Mean ± SEM, n = 3; values without SEM n = 1; read-out: Brain IC50
MEASURED PROPERTY: IC50 (nM)

1. CN(C)c1ccc(-n2c(CCc3c[nH]c4ccc(Br)cc34)nc3ccccc3c2=O)cc1
2. CN(C)c1cccc(-n2c(CCc3c[nH]c4ccc(Br)cc34)nc3ccccc3c2=O)c1
3. O=c1c2ccccc2nc(CCc2c[nH]c3ccc(Br)cc23)n1-c1cccc(C(F)(F)F)c1
## Input Arrange by IC50, high to low. Put the labels in the requested order and write them down.
## Output 3, 1, 2
(3: 230 nM, 1: 33 nM, 2: 16 nM)

A. COc1ccc2[nH]cc(CCc3nc4ccccc4c(=O)n3-c3cccc(OC(C)C)c3)c2c1
B. CCc1cccc(-n2c(CCc3c[nH]c4ccc(Cl)cc34)nc3ccccc3c2=O)c1
## Input Out of A and B , name the one with the higher IC50. Reply briefly: the label of your chosen item.
## Output B
